# Species: Rattus norvegicus
# Test: DrugMatrix - Regimen: Daily Repeat
# Type: toxicity, organism-based, Sprague-Dawley
# Parameters: regimen Daily Repeat, gender Male, age 6-8 weeks
# Measurement Context: in vivo, po, 0 mg/kg, 120 h, tissue Plasma, route oral GAVAGE, dose level Control, time 5 day, vehicle .5 % CMC
Doc: threshold 50 u/L (exclusive). Items with ALANINE AMINOTRANSFERASE beneath it return y; others return n.

Query: Lab note: confirm whether the reported ALANINE AMINOTRANSFERASE for this compound is below 50 u/L, equality not counting. compound: CC[C@H]1OC(=O)[C@H](C)[C@@H](O[C@H]2C[C@@](C)(OC)[C@@H](O)[C@H](C)O2)[C@H](C)[C@@H](O[C@@H]2O[C@H](C)C[C@H](N(C)C)[C@H]2O)[C@](C)(O)C[C@@H](C)/C(=N\OCOCCOC)[C@H](C)[C@@H](O)[C@]1(C)O
Result: y

Query: Lab note: confirm whether the reported ALANINE AMINOTRANSFERASE for this compound is below 50 u/L, equality not counting. compound: O=c1cc(-c2ccccc2)oc2c1ccc1ccccc12
Result: y

Query: Lab note: confirm whether the reported ALANINE AMINOTRANSFERASE for this compound is below 50 u/L, equality not counting. compound: COc1c(C)c2c(c(O)c1C/C=C(\C)CCC(=O)OCCN1CCOCC1)C(=O)OC2 [MYCOPHENOLATE MOFETIL]
Result: n

Query: Lab note: confirm whether the reported ALANINE AMINOTRANSFERASE for this compound is below 50 u/L, equality not counting. compound: O=c1[nH]cc(F)c(=O)[nH]1
Result: y

Query: Lab note: confirm whether the reported ALANINE AMINOTRANSFERASE for this compound is below 50 u/L, equality not counting. compound: CCC[C@@H]1C[C@@H](C(=O)N[C@@H]([C@H]2O[C@H](SC)[C@H](O)[C@@H](O)[C@H]2O)[C@@H](C)O)N(C)C1
Result: n

Query: Lab note: confirm whether the reported ALANINE AMINOTRANSFERASE for this compound is below 50 u/L, equality not counting. compound: CC(/C=C1\SC(=S)N(CC(=O)O)C1=O)=C\c1ccccc1
Result: n

Query: Lab note: confirm whether the reported ALANINE AMINOTRANSFERASE for this compound is below 50 u/L, equality not counting. compound: CN1C(C(=O)Nc2ccccn2)=C(O)c2ccccc2S1(=O)=O
Result: y

Query: Lab note: confirm whether the reported ALANINE AMINOTRANSFERASE for this compound is below 50 u/L, equality not counting. compound: NCC(=O)O
Result: y

Further cases:
Query: Lab note: confirm whether the reported ALANINE AMINOTRANSFERASE for this compound is below 50 u/L, equality not counting. compound: O=C1CCc2cc(OCCCCc3nnnn3C3CCCCC3)ccc2N1
Result: y

###

# Species: Rattus norvegicus
# Test: DrugMatrix - Regimen: Daily Repeat
# Assay type: toxicity, organism-based, Sprague-Dawley
# Design: regimen Daily Repeat, gender Male, age 6-8 weeks
# Measurement Context: in vivo, ip, 8 mg/kg, […], tissue Blood, route intraperitoneal, dose level High, time 28 day, vehicle 100 % SALINE
Recorded Metric: ABSOLUTE BASOPHIL
Report field: quantity (unit follows the number).

// field: ABSOLUTE BASOPHIL; key: GOLD SODIUM THIOMALATE ; value = 110 cells/µL

###

Entries and their TOTAL BILIRUBIN values follow.
# Species on record: Rattus norvegicus
# Test: DrugMatrix - Regimen: Daily Repeat
# Assay type: toxicity, organism-based, Sprague-Dawley
# Set-up: regimen Daily Repeat, gender Male, age 6-8 weeks
# Measurement Context: in vivo, po, 0 mg/kg, 72 h, tissue Plasma, route oral GAVAGE, dose level Control, time 3 day, […]
Express it in mg/dL; write the number only.

Recorded TOTAL BILIRUBIN, per entry:
// field: TOTAL BILIRUBIN; key: COC1=CC(=O)C[C@@H](C)[C@]12Oc1c(Cl)c(OC)cc(OC)c1C2=O [GRISEOFULVIN] ; value = 0.23

// field: TOTAL BILIRUBIN; key: C=CCN [ALLYLAMINE] ; value = 0.43

// field: TOTAL BILIRUBIN; key: CC(C)n1c(/C=C/C(O)CC(O)CC(=O)O)c(-c2ccc(F)cc2)c2ccccc21 (stereo unspecified) [FLUVASTATIN] ; value = 0.2

// field: TOTAL BILIRUBIN; key: CC1=C(/C=C/C(C)=C/C=C/C(C)=C\C(=O)O)C(C)(C)CCC1 [ISOTRETINOIN] ; value = 0.18

// field: TOTAL BILIRUBIN; key: CC(=O)[C@H]1CC[C@H]2[C@@H]3CCC4=CC(=O)CC[C@]4(C)[C@H]3CC[C@]12C [PROGESTERONE] ; value = 0.18

Consider the record given below.
// field: TOTAL BILIRUBIN; key: CN(C)CCCC1(c2ccc(F)cc2)OCc2cc(C#N)ccc21 (stereo unspecified) [CITALOPRAM] ; value = 0.18

###

# Species on record: Rattus norvegicus
# Test: DrugMatrix - Regimen: Daily Repeat
# Type: toxicity, organism-based, Sprague-Dawley
# Parameters: regimen Daily Repeat, gender Male, age 6-8 weeks
# Measurement Context: in vivo, ip, 0 mg/kg, […], tissue Blood, route intraperitoneal, dose level Control, time 14 day, vehicle 100 % SALINE
Recorded Metric: ABSOLUTE BASOPHIL (cells/µL)
Express it in cells/µL; write the number only.

// field: ABSOLUTE BASOPHIL; key: CISPLATIN ; value = 130

// field: ABSOLUTE BASOPHIL; key: GOLD SODIUM THIOMALATE ; value = 130

// field: ABSOLUTE BASOPHIL; key: CARBOPLATIN ; value = 130

###

Entries and their NEUTROPHIL values follow.
# Species: Rattus norvegicus
# Test: DrugMatrix - Regimen: Daily Repeat
# Type: toxicity, organism-based, Sprague-Dawley
# Parameters: regimen Daily Repeat, gender Male, age 6-8 weeks
# Measurement Context: in vivo, po, 0 mg/kg, 120 h, tissue Blood, route oral GAVAGE, dose level Control, time 5 day, vehicle .5 % CMC
Express it in %; write the number only.

// field: NEUTROPHIL; key: CCc1cccc2c3c([nH]c12)C(CC)(CC(=O)O)OCC3 (centres undefined) ; value = 14.05

// field: NEUTROPHIL; key: NCC(=O)O ; value = 15

// field: NEUTROPHIL; key: CC(/C=C1\SC(=S)N(CC(=O)O)C1=O)=C\c1ccccc1 ; value = 8.83

Further cases:
// field: NEUTROPHIL; key: CCC[C@@H]1C[C@@H](C(=O)N[C@@H]([C@H]2O[C@H](SC)[C@H](O)[C@@H](O)[C@H]2O)[C@@H](C)O)N(C)C1 ; value = 6.67

// field: NEUTROPHIL; key: O=c1cc(-c2ccccc2)oc2c1ccc1ccccc12 ; value = 14.24

// field: NEUTROPHIL; key: O=c1[nH]cc(F)c(=O)[nH]1 ; value = 10.17

// field: NEUTROPHIL; key: CC1(C)[C@H]2CC[C@]1(C)C(=O)C2 [(-)-CAMPHOR] ; value = 8.33

// field: NEUTROPHIL; key: CC(C)[C@H](N)C(=O)OCCOCn1cnc2c(=O)[nH]c(N)nc21 ; value = 8

// field: NEUTROPHIL; key: COC(=O)c1ccc(O)cc1 ; value = 6.67

// field: NEUTROPHIL; key: CN1CCC[C@@H]1CCO[C@](C)(c1ccccc1)c1ccc(Cl)cc1 ; value = 8.83

// field: NEUTROPHIL; key: CCc1ccc(C(=O)C(C)CN2CCCCC2)cc1 (centres undefined) ; value = 7.67

// field: NEUTROPHIL; key: COc1c(C)c2c(c(O)c1C/C=C(\C)CCC(=O)OCCN1CCOCC1)C(=O)OC2 [MYCOPHENOLATE MOFETIL] ; value = 8.83

// field: NEUTROPHIL; key: Cc1c(-c2ccccc2)oc2c(C(=O)OCCN3CCCCC3)cccc2c1=O [FLAVOXATE] ; value = 6.83

// field: NEUTROPHIL; key: O=C1CCc2cc(OCCCCc3nnnn3C3CCCCC3)ccc2N1 ; value = 11.97

// field: NEUTROPHIL; key: CCOC(=O)OC(C)OC1=C(C(=O)Nc2ccccn2)N(C)S(=O)(=O)c2ccccc21 (centres undefined) ; value = 8.67

// field: NEUTROPHIL; key: C[C@]12CCC(=O)C=C1CC[C@@H]1[C@@H]2C(=O)C[C@@]2(C)[C@H]1CC[C@]2(O)C(=O)CO ; value = 14.05

// field: NEUTROPHIL; key: CN1C(C(=O)Nc2ccccn2)=C(O)c2ccccc2S1(=O)=O ; value = 11.5

// field: NEUTROPHIL; key: CC[C@H]1OC(=O)[C@H](C)[C@@H](O[C@H]2C[C@@](C)(OC)[C@@H](O)[C@H](C)O2)[C@H](C)[C@@H](O[C@@H]2O[C@H](C)C[C@H](N(C)C)[C@H]2O)[C@](C)(O)C[C@@H](C)/C(=N\OCOCCOC)[C@H](C)[C@@H](O)[C@]1(C)O ; value = 14.05

// field: NEUTROPHIL; key: Brc1ccccc1 ; value = 8.67
